Values from ChEMBL document CHEMBL1961873

system: Mitogen-activated protein kinase kinase kinase kinase 4 (Homo sapiens) (UniProt O95819);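 further: reported figure is an averaged inhibition value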
Sequence (O95819 2-1239 limits assumed): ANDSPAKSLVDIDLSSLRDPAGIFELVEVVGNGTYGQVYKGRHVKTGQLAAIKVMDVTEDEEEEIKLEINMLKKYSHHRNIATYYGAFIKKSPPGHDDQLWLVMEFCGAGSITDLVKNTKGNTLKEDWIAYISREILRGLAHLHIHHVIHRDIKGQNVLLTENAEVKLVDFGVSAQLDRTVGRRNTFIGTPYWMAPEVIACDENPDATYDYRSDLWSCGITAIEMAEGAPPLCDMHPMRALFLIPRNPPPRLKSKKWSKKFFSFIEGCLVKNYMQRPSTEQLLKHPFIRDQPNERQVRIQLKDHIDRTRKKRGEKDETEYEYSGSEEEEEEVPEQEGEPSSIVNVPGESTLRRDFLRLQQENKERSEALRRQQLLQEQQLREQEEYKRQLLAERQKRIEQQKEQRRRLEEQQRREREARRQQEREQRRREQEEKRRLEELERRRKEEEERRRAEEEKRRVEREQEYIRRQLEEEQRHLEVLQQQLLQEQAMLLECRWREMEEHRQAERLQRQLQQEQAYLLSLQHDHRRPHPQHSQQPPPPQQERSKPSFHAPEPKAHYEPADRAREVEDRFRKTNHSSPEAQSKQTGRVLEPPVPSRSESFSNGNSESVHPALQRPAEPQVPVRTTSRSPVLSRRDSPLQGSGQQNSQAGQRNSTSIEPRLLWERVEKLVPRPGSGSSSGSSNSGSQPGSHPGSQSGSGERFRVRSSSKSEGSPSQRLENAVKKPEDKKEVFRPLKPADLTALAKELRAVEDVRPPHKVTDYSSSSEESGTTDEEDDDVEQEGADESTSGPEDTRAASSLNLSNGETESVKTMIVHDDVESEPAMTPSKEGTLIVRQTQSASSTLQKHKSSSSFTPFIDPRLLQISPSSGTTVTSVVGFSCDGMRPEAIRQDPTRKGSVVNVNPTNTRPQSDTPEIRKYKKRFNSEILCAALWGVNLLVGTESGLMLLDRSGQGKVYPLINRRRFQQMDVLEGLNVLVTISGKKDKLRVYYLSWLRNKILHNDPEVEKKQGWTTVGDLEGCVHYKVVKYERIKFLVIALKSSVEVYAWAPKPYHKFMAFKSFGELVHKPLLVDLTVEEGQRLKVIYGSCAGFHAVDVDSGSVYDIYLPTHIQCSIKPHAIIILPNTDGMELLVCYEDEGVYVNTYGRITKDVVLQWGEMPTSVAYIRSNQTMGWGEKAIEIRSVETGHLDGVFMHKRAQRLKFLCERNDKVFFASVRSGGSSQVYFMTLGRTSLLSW
conditionDetails: at 1 µM
Task for the reader: assign each of the following compounds its reported inhibition.
Please respond with the number in % and leave the unit unwritten.

Incoming: For the compound shown here, CC1=C(C(=O)Nc2ccc3[nH]ncc3c2)C(c2ccc(F)cc2)NC(=O)N1 (configuration not stated) , give the reported inhibition.
Outgoing: 11.1

Incoming: Follow-up item: `Nc1ncnc2occ(-c3ccc(NC(=O)Nc4cc(C(F)(F)F)cc(C(F)(F)F)c4)cc3)c12`
Outgoing: 5.19

Incoming: Follow-up item: `Nc1nc(-c2ccccn2)c(-c2ccc3ncccc3n2)s1`
Outgoing: 9.69

Incoming: Follow-up item: `Fc1cccc(COc2ccc(Nc3ncnc4cc(-c5ccc[nH]5)sc34)cc2Cl)c1`
Outgoing: 13.9

Incoming: Follow-up item: `Cc1nnc(-c2ccc(C)c(-c3ccc(C(=O)Nc4cccc(C#N)c4)cc3)c2)o1`
Outgoing: 10.6

Incoming: Follow-up item: `Nc1nc(-c2ccc3c(c2)C(=Cc2cc(Br)c(O)c(Br)c2)C(=O)N3)cs1`
Outgoing: 75.3

Incoming: Follow-up item: `COc1ccc(-c2coc3ncnc(N)c23)cc1`
Outgoing: 10.2

Incoming: Follow-up item: `COc1ccc(-c2nn3ncccc3c2-c2ccnc(Nc3ccc(Cl)c(C(F)(F)F)c3)n2)cc1`
Outgoing: 14.7

Incoming: Follow-up item: `CCn1c(-c2nonc2N)nc2c(N3CCCC3)nccc21`
Outgoing: 2.78

Incoming: Follow-up item: CC1=C(C(=O)Nc2ccc3[nH]ncc3c2)C(c2ccc(Cl)c(Cl)c2)CC(=O)N1 (configuration not stated)
Outgoing: 3.96

Incoming: Follow-up item: `O=C1NC(=O)C(N2CCc3ccccc32)=C1c1ccc(Cl)cc1`
Outgoing: 9.97

Incoming: Follow-up item: `Nc1ncnc2occ(-c3ccc(NC(=O)Nc4cccc(C(F)(F)F)c4)cc3)c12`
Outgoing: 12.3

Incoming: Follow-up item: `COc1cc(C)c(NC(=O)CN(C)C)cc1Nc1nc(Nc2cccc(F)c2C(N)=O)c2cc[nH]c2n1`
Outgoing: 17.8

Incoming: Follow-up item: `CCn1c(-c2nonc2N)nc2cncc(C(=O)N3CCNCC3)c21`
Outgoing: 4.49

Incoming: Follow-up item: `NS(=O)(=O)c1ccc(N/N=C2\C(=O)Nc3ccc(C(=O)NCCc4c[nH]cn4)cc32)cc1`
Outgoing: 40

Incoming: Follow-up item: `COc1cc(C=NNc2ncnc3c2cnn3-c2ccccc2)ccc1O`
Outgoing: 70.6

Incoming: Follow-up item: `O=C1NC(=O)C(c2cccc(Cl)c2)=C1Nc1ccc(O)c(Cl)c1`
Outgoing: 7.19

Incoming: Follow-up item: `O=C1Nc2ccc(C(=O)c3ccco3)cc2C1=Cc1cc(Cl)c(O)c(Cl)c1`
Outgoing: 75.8

Incoming: Follow-up item: `Cc1ccc(NC(=O)c2ccnc(N3CCCC3)c2)cc1-c1ccc(C(=O)NCC2CC2)cc1`
Outgoing: 10.9

Incoming: Follow-up item: `CCn1c(-c2nonc2N)nc2cncc(C(=O)N3CC[C@H](N)C3)c21`
Outgoing: 5.7

Incoming: Follow-up item: `COc1ccc(-c2ccncc2)cc1C(N)=O`
Outgoing: 11.4

Incoming: Follow-up item: `CS(=O)(=O)CCNCc1nc(-c2ccc3ncnc(Nc4ccc(F)c(Cl)c4)c3c2)cs1`
Outgoing: 4.84

Incoming: Follow-up item: `CCc1cccc(NC(=O)Nc2ccc(Oc3ccc4nc(NC(=O)OC)[nH]c4c3)cc2)c1`
Outgoing: 3.37

Incoming: Follow-up item: `Fc1cccc(COc2ccc(Nc3ncnc4sc(-c5cccs5)cc34)cc2Cl)c1`
Outgoing: 6.34

Incoming: Follow-up item: `O=C1NC(=O)C(c2ccccc2Cl)=C1Nc1cccc(O)c1`
Outgoing: 6.87

Incoming: Follow-up item: `CCCN1CCC=C(c2ccc(Nc3nc(Nc4ccccc4C(N)=O)c4cc[nH]c4n3)c(C)c2)C1`
Outgoing: 65.3

Incoming: Follow-up item: `CS(=O)(=O)CCN(CC#N)Cc1ccc(-c2ccc3ncnc(Nc4ccc(OCc5cccc(F)c5)c(Cl)c4)c3c2)o1`
Outgoing: 5

Incoming: Follow-up item: `COc1cc2ncn(-c3cc(OCc4ccccc4C(F)(F)F)c(C(N)=O)s3)c2cc1OC`
Outgoing: 30.1

Incoming: Follow-up item: `NS(=O)(=O)c1cccc(-c2ccc3c(NC(=O)C4CC4)n[nH]c3c2)c1`
Outgoing: 10

Incoming: Follow-up item: `COc1ccccc1Nc1ncc(-c2ccccc2)o1`
Outgoing: 26.2

Incoming: Follow-up item: `COc1cc2c(cc1Nc1nc(N3CCc4ccccc43)c3cc[nH]c3n1)N(C(=O)CN(C)C)CC2`
Outgoing: 2.27

Incoming: Follow-up item: `CS(=O)(=O)CCNCc1ccc(-c2ccc3ncnc(Nc4ccc(OCc5cccc(F)c5)c(C(F)(F)F)c4)c3c2)o1`
Outgoing: 8.1

Incoming: Follow-up item: `CS(=O)(=O)CCNCc1ccc(-c2ccc3ncnc(Nc4ccc(OCc5ccccc5)c(Cl)c4)c3c2)o1`
Outgoing: 3.37

Incoming: Follow-up item: `CNC(=O)c1cncc(/C=C/c2c(Cl)cccc2Cl)c1`
Outgoing: 23

Incoming: Follow-up item: `COC(=O)Nc1nc2cc(Oc3ccc(NC(=O)Nc4cccc(C(=O)O)c4)cc3)ccc2[nH]1`
Outgoing: 5.9

Incoming: Follow-up item: `Cc1ccc(C(=O)NC2CCCCC2)cc1-c1ccc(C(=O)NCC2CC2)cc1`
Outgoing: 0.87

Incoming: Follow-up item: `COc1ccc(COc2ccc(Cc3cnc(N)nc3N)cc2OC)cc1`
Outgoing: 6.03
